System under test: Lysine-specific demethylase 4A (Homo sapiens) (UniProt O75164)
Sequence (O75164 whole entry, looked up, the tested form may be a part): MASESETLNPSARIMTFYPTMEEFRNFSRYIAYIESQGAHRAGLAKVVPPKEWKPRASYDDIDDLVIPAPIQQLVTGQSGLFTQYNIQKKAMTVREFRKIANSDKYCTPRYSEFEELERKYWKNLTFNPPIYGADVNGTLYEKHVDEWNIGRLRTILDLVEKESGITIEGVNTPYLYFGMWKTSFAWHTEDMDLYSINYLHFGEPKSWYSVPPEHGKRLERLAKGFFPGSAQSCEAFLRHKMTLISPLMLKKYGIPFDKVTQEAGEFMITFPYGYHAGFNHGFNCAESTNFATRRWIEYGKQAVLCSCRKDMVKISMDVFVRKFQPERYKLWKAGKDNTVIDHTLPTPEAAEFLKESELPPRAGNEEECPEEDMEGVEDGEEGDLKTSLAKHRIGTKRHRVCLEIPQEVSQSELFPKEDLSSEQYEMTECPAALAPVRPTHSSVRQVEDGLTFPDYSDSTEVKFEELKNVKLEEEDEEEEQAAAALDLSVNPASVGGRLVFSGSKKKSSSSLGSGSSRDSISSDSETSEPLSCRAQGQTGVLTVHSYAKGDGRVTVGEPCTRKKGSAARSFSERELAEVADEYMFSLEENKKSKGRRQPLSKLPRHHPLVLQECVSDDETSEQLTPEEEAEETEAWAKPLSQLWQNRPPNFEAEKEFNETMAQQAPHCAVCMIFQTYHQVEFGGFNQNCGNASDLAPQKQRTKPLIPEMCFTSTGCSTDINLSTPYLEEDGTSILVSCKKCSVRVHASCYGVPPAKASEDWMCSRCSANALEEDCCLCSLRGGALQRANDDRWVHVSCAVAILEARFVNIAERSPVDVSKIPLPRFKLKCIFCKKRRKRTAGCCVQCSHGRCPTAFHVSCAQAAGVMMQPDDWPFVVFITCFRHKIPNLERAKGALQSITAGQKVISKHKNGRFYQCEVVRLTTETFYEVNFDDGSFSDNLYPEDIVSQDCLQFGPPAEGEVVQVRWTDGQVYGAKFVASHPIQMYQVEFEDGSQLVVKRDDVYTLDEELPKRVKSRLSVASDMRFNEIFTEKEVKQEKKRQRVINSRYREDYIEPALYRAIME
Measurement description: qHTS Assay for Inhibitors of JMJD2A-Tudor Domain; also: nearly all actives have a fitted effect of over 50% in size
Measurement conditions: AlphaScreen JMJD2A-Tudor / H3K4me3 peptide binding; series mostly up to 114 µM
The whole screen tested about 390,000 compounds, of which about 17,000 (4.4%) were called active. Inconclusive results (about 8%) are left out. Calls follow the shape of the dose curve; as a rule, active = well fitted inhibition curve with a large enough effect; inconclusive = small, poorly fitted or top-dose-only effect; inactive = no such curve, though single readings can be large or run the other way. This is one part of a sample in which actives are shown more often than they occur.
Classes used: active, inactive

Compound: CN(C)/C=C1/Nc2ccccc2C1=O
Group label: active
//
Compound: CCn1c(SCc2cccc(C(=O)O)c2)nnc1-c1ccc(Cl)cc1
Group label: inactive
//
Compound: O=C(NNC(=O)c1ccc(Cl)nc1)c1ccc(Br)cc1
Group label: inactive
//
Compound: CCS(=O)(=O)c1cc([N+](=O)[O-])c(Sc2ccccc2N)s1
Group label: active
//
Compound: COc1ccc(C(=O)/C=C/Nc2ccccn2)cc1
Group label: inactive
//
Compound: CCOc1ccc(C2C(C(=O)Nc3ccc(Cl)cc3)=C(C)Nc3nc(C(F)(F)F)nn32)cc1 (stereo not drawn)
Group label: inactive
//
Compound: COc1ccccc1-c1cc2nc(C)c(CCC(=O)O)c(C)n2n1
Group label: inactive
//
Compound: CCS(=O)(=O)c1nc(S(=O)(=O)c2ccc(C)cc2)c(NCc2ccc(Cl)cc2)s1
Group label: inactive
//
Compound: COc1ccc(C(=O)CSc2c(C(C)C)cnc3c2c(=O)n(C)c(=O)n3C)cc1
Group label: inactive
//
Compound: C=CCN(C(=O)c1cc(C)cc(C)c1)C1(C(=O)Nc2ccccc2)CCN(C(C)C)CC1
Group label: inactive
//
Compound: COc1ccc(NC(=O)CCCc2nnc3n(CCC(C)C)c(=O)c4sccc4n23)c(OC)c1
Group label: inactive
//
Compound: CSc1ncc(C(=O)NCc2ccccc2Cl)c(C(F)(F)F)n1
Group label: inactive
//
Compound: COc1ccc(-c2cc(-c3ccc(F)cc3)nc3c2COc2ccccc2-3)cc1
Group label: inactive
//
Compound: CN(C)CCCn1c(SCc2ccc(Cl)cc2)nnc1-c1ccncc1
Group label: active
//
Compound: O/N=C1\CC2(Cc3nonc31)OCCO2
Group label: inactive
//
Compound: Cc1ccc(C)c(OCC(=O)Nc2sc3c(c2C#N)CCCC3)c1C
Group label: inactive
//
Compound: COc1ccc(C(=O)CCc2ccccc2O)c(OC)c1
Group label: inactive
//
Compound: CCCS(=O)(=O)C(=C1Nc2ccccc2N1)S(=O)(=O)CCC
Group label: inactive
//
Compound: COc1ccc(C(=O)NC(C)CCc2ccccc2)c(OC)c1 (stereo not drawn)
Group label: inactive
//
Compound: Cn1c(SCc2ccc(F)cc2)nnc1-c1ccncc1
Group label: inactive
//
Compound: COc1ccccc1NC(=O)CSC1=Nc2ccccc2C2=NC(CC(=O)NCc3cccs3)C(=O)N12 (stereo not drawn)
Group label: inactive
//
Compound: COc1cc(C(=O)N2CCN(c3ccc(Nc4ccc(C)cc4)nn3)CC2)cc(OC)c1OC
Group label: inactive
//
Compound: CCN1CCN(CCCNC(=O)c2cnn(-c3ccc(C)cc3C)c2C2CCN(C(=O)OC(C)(C)C)CC2)CC1
Group label: inactive
//
Compound: COc1ccccc1NC(=O)CN1C(=O)c2ccccc2Sc2ccc(C(=O)N3CCCC3)cc21
Group label: inactive
//
Compound: Cc1cc(C)c2oc(C(=O)Nc3ccc(S(=O)(=O)N(C)c4ccccc4)cc3)cc(=O)c2c1
Group label: inactive
//
Compound: Cc1ccc2nc(COc3cccc(NC(=O)c4ccccc4Cl)c3)cc(=O)n2c1
Group label: inactive
//
Compound: O=C(CNC(=O)COc1ccccc1)NCCc1ccccn1
Group label: inactive
//
Compound: COc1ccc(OCC(=O)Nc2cccc(C(=O)OCc3cc(=O)n4nc(C)sc4n3)c2)cc1
Group label: inactive
//
Compound: ON=C1/C(=N\O)CC2(C/C1=N/O)OCCO2
Group label: active
//
Compound: CCc1ccc(NC(=O)CN2C(=O)C(c3ccccc3)=NC23CCCCCC3)cc1
Group label: inactive
//
Compound: CCCOc1cccc(C(=O)Nc2cccc(NC(=O)c3ccc(C(C)(C)C)cc3)c2)c1
Group label: inactive
//
Compound: Cc1cc(NC(=O)C2CCC(CNS(=O)(=O)c3ccc(Br)s3)CC2)ccc1Br (stereo not drawn)
Group label: inactive
//
Compound: CCC(=O)N1c2ccccc2CC1C(=O)N1CCN(c2ccccc2F)CC1 (stereo not drawn)
Group label: inactive
//
Compound: CCOC(=O)c1c(NC(=O)CSc2cn(CCNC(=O)c3cccc(C(F)(F)F)c3)c3ccccc23)sc2c1CCC2
Group label: inactive
//
Compound: CC1CCCC(NC(=O)CSc2nccn2C)C1C (stereo not drawn)
Group label: inactive
//
Compound: CC1CCCCC1NC(=O)CSc1nnc(-c2ccncc2)n1CCCN(C)C (stereo not drawn)
Group label: active
//
Compound: CN(C)Cc1cn(-c2ccccc2)nc1-c1ccccc1
Group label: inactive
//
Compound: O=C1C(F)N([S+](=O)([O-])c2ccc3c(c2)OCCO3)CCN1[S+](=O)([O-])c1c(F)cccc1F (stereo not drawn)
Group label: inactive
//
Compound: COc1ccc(C(=O)NCCCN2CCOCC2)cc1Br
Group label: inactive
//
Compound: COC(=O)c1ccc(Cn2c(SCC(=O)N(C)c3ccccc3)nc3ccccc32)cc1
Group label: inactive
//
Compound: COc1ccccc1CNC(=O)C(Cc1ccccc1)NS(=O)(=O)c1ccc2c(c1)oc(=O)n2C (stereo not drawn)
Group label: inactive
//
Compound: CCN(C(=O)Cc1nc(N)n[nH]1)C1(C(=O)Nc2ccccc2)CCCCC1
Group label: active
//
Compound: CCc1nn(CC(=O)Nc2cc(C)cc(C)c2)c(=O)c2cc3sccc3n12
Group label: inactive
